These entries and their values trace back to patent US20120039802A1.

Reported % of binding in the absence of HGF values for the following binders.
- tgt: T1, cMet-Fc fusion protein (extracellular domain of the cMet receptor expressed as an Fc-fusion protein) (human, UniProt P08581 25-932)
- T1 construct: extracellular domain; also called soluble cMet-Fc-fusion protein; soluble cMet receptor; not shown: Fc part
- assay.procedure: phage ELISA on cMet-Fc, competitor HGF 100 ng/mL
metric: % of binding in the absence of HGF (%)

> print(dat)
                                     binder                              metric  val
1  AQDPGFSKHSMGHGYPSKMNWG [115-G02 peptide-displaying phage (SEQ ID NO: 471)]  % of binding in the absence of HGF   59
2  AGHYWCAGPPTFICMGPGT [550-C09 peptide-displaying phage (SEQ ID NO: 062)]  % of binding in the absence of HGF   25
3  GSSTICPGTACVDHAP [574-H03 peptide-displaying phage (SEQ ID NO: 008)]  % of binding in the absence of HGF   88
4  AQMYQTPDGVIGKFVDWMFN [119-F06 peptide-displaying phage (SEQ ID NO: 455)]  % of binding in the absence of HGF    4
5  AGSIACTGWPYFSCIDLGT [547-H12 peptide-displaying phage (SEQ ID NO: 088)]  % of binding in the absence of HGF   92
6  AGGWECTGPPWFQCGYYGT [334-C08 peptide-displaying phage (SEQ ID NO: 067)]  % of binding in the absence of HGF   70
7  AQFSGLVMYGRTHEVQWTFGSM [94-G02 peptide-displaying phage (SEQ ID NO: 477)]  % of binding in the absence of HGF  108
